The measured values listed here are drawn from PubChem BioAssay AID1224921.

assay: inhibitors of Clostridioides difficile proliferation – 4-point retest, confirmation (AID 1224921); settings: Clostridioides difficile clinical isolate growth, OD600, 24 h, hits give low values; at 30 µM unless noted;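 note: plate controls were DMSO wells for no effect and levofloxacin 16 µg/mL wells for full effect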
The campaign covered roughly 1,400 compounds. About 350 (25%) were called active. Inconclusive results (about 2%) are left out. The list is a sample of the results. Entries with a potency or affinity are not part of this list.
Measured Endpoint: max activity

1) C[C@@H]1CN([C@@H](C)CO)C(=O)c2cc(NC(=O)Nc3cccc4ccccc34)ccc2O[C@@H](C)CCCCO[C@H]1CN(C)Cc1ccccc1 ... 42% (inactive)
2) CCCNC(=O)N[C@@H]1C=C[C@@H](CC(=O)N2CCN(C)CC2)O[C@H]1CO ... -11.4% (inactive)
3) COc1cccc(NC(=O)N[C@H]2C=C[C@H](CC(=O)NCc3ccncn3)O[C@@H]2CO)c1 ... -9.51% [at 0.5 µM] (inactive)
4) COc1ccccc1CNC(=O)C[C@H]1C[C@@H]2c3cc(NC(=O)NC4CCCC4)ccc3O[C@@H]2[C@@H](CO)O1 ... 12.1% (inactive)
5) CO[C@H]1O[C@H](CO)[C@@H](OC(=O)Nc2cccc(F)c2)[C@H](OC(=O)Nc2ccc3c(c2)OCO3)[C@H]1OC(=O)Nc1ccc2c(c1)OCO2 ... 8.7% (inactive)
6) CCC(=O)N[C@@H]1C=C[C@@H](CC(=O)OC)O[C@H]1CO ... -12.2% [at 8 µM] (inactive)
7) CO[C@@H]1CN(C)C(=O)c2ccc(NC(=O)NC(C)C)cc2OC[C@@H](C)N(C(=O)NC(C)C)C[C@H]1C ... -11.6% [at 2.1 µM] (inactive)
8) C[C@@H]1CN([C@H](C)CO)C(=O)Cc2cc(NS(C)(=O)=O)ccc2O[C@H]1CN(C)Cc1ccccc1 ... 15.9% (inactive)
9) CO[C@@H]1CN(C)C(=O)c2ccc(NC(=O)C3CCC3)cc2OC[C@@H](C)N(S(=O)(=O)c2ccc(Cl)cc2)C[C@H]1C ... -9.7% [at 2.1 µM] (inactive)
10) CNC[C@H]1Oc2cc(-c3ccccc3F)ccc2S(=O)(=O)N([C@H](C)CO)C[C@@H]1C ... 14% (inactive)
